Biological target: M4 muscarinic receptor (Homo sapiens, UniProt P08173)
Construct: expressed in transfected cells; host or cells: CHO (M4-CHO)
Sequence (P08173 whole entry): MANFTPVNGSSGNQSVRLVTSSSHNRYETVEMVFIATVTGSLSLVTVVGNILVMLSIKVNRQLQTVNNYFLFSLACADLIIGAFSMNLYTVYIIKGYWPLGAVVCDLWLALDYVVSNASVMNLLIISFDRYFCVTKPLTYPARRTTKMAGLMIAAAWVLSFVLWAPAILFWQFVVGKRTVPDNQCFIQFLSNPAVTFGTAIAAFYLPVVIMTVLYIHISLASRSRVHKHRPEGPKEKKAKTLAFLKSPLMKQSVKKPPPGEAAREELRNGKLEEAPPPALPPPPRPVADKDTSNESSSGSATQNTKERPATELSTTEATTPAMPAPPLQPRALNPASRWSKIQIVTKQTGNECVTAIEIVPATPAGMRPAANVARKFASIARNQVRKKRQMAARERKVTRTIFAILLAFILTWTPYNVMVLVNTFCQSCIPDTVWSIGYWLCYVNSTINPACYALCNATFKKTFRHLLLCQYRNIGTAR
Assay: Functional mobilization of intracellular calcium (FLIPR), M4-CHO cells
Assay type: cell-based
Settings: 100% efficacy is the maximum response obtained using Carbachol as a control
Parameter: Emax. Scope: all listed entries.

Here is how some molecules turned out for Emax.
[[record]]
molecule = "COCCOC(=O)N1C2CCC1CC(N1CCC3(CC1)CN(C(C)=O)Cc1ccccc13)C2 (stereo not shown) [compound 90]"
measured_on = "M4 muscarinic receptor (Homo sapiens, UniProt P08173)"
obs_value = "25 to 100%"

[[record]]
molecule = "CC(=O)N1Cc2ccccc2C2(CCN(Cc3ccccc3C#N)CC2)C1 [compound 322]"
measured_on = "M4 muscarinic receptor (Homo sapiens, UniProt P08173)"
obs_value = "< 25%"

[[record]]
molecule = "O=C1OC2(CCN(C[C@H]3C[C@H]4C=C[C@H]3C4)CC2)c2ccc(Cl)cc21 [compound 19]"
measured_on = "M4 muscarinic receptor (Homo sapiens, UniProt P08173)"
obs_value = "< 25%"


We now examine a further molecule.
Per the records, this molecule ( CC(=O)N1Cc2ccccc2C2(CCN(Cc3sc(C)nc3C)CC2)C1 [compound 301] ) has Emax equal to < 25%
